# PROTOCOL_SUMMARY: in vivo
# Set-up: species or system BALB/c nude mice
# MEASUREMENT_PARAMETERS: female, BALB/c nude, mouse, iv, 3.7 MBq, total radioactivity, Tumor-to-Liver ratio (T/B)
Numbered stars: 1 amine (or outer) side, 2 acyl side, 3 side chain; on linkers, the order of the positions; unused ones are H or OH. Square brackets hold non-standard residues; d marks the D form. Peptide text beside a SMILES is read from it. * marks the point of attachment. DOTA = O=C(O)CN1CCN(CC(=O)O)CCN(CC(=O)*)CCN(CC(=O)O)CC1; d(γGlu) = O=C(O)[C@@H](CCC(=O)[*:2])N[*:1]; 1Nal = N[C@@H](Cc1cccc2ccccc12)C(=O)O; NMeNle = CCCC[C@H](NC)C(=O)O; PEG4 = NCCOCCOCCOCCOCCC(=O)O
ATTRIBUTE_MEASURED: tissue to tissue ratio at 1 h

Exercise: Fill in the blank: the reported tissue to tissue ratio at 1 h of CCCC[C@@H](C(=O)N[C@@H](CC(=O)O)C(=O)N[C@@H](Cc1cccc2ccccc12)C(N)=O)N(C)C(=O)[C@H](Cc1c[nH]c2ccccc12)NC(=O)CCOCCOCCOCCOCCNC(=O)CC[C@@H](NC(=O)CN1CCN(CC(=O)O)CCN(CC(=O)O)CCN(CC(=O)O)CC1)C(=O)O [[68Ga]Ga-DOTA-CCK-66, metal not drawn, reference compound] ({DOTA-d(γGlu)-PEG4}-W[NMeNle]D[1Nal]-NH2) is ____.
Solution: 4.3

FYI, the data here is from paper PMC12439480.
